Assay explanation: Concentration of SaCl in crevicular fluid from periodontal pocket of a greyhound dog (Periostrips, Periotron, liquid chromatograph)
Test settings: other: inserted into the periodontal pocket
Experimental readout: concentration at 7 days (µg/mL)
Express your answer in µg/mL, writing the number without its unit.

Reported concentration at 7 days for C[n+]1cc2c3c(ccc2c2ccc4cc5c(cc4c21)OCO5)OCO3 [SaCl, Sanguinarine chloride] : what is it? 80.2

====

Assay explanation: Concentration of SaCl in crevicular fluid from periodontal pocket of a greyhound dog (Periostrips, Periotron, liquid chromatograph)
Test settings: other: inserted into the periodontal pocket
Experimental readout: concentration at 10 days (µg/mL)
The reply should contain only the number, in µg/mL.

Which concentration at 10 days is listed for C[n+]1cc2c3c(ccc2c2ccc4cc5c(cc4c21)OCO5)OCO3 [SaCl, Sanguinarine chloride] ? 67.8

Sourced from patent USRE37950E1
